Test system: human neuroblastoma cell line
Assay: Release of noradrenaline induced by TPA/ionomycin in a neuroblastoma cell line, quantified by ELISA
Type: cell-based
Conditions: 10 µM; 60 minutes pre-incubation; TPA/ION = 100.00
readout.type: % RELEASED NORADRENALINE Average (%)
Express the result in % but write the number alone.

See these solved cases before continuing.
substance	% RELEASED NORADRENALINE Average, %
Ac-EDLKRWM-NH2 [Ac-SEQ ID NO:14-NH2]	84.96
Ac-EHLKQWM-NH2 [Ac-SEQ ID NO:1-NH2]	93.07
Ac-DHFLDWM-NH2 [Ac-SEQ ID NO:25-NH2]	94.48

Prompt: What does the data say about its % RELEASED NORADRENALINE Average? Entry: Ac-DHFQQRM-NH2 [Ac-SEQ ID NO:24-NH2]
Completion: 97.06

---

Test system: human neuroblastoma cell line
Assay: Release of noradrenaline induced by TPA/ionomycin in a neuroblastoma cell line, quantified by ELISA
Type: cell-based
Settings: 100 µM; 60 minutes pre-incubation; TPA/ION = 100.00
Here, each record is paired with measured % RELEASED NORADRENALINE Average data.
Express the result in % but write the number alone.

See these solved cases before continuing.
substance	tested.on	result.value
Ac-EHLKQWM-NH2 [Ac-SEQ ID NO:1-NH2]	human neuroblastoma cell line	79.59
Ac-EDLKRWM-NH2 [Ac-SEQ ID NO:14-NH2]	human neuroblastoma cell line	85.97
Ac-DHFLDWM-NH2 [Ac-SEQ ID NO:25-NH2]	human neuroblastoma cell line	74.79

Pending substance:
Prompt: What does the data say about its % RELEASED NORADRENALINE Average? Entry: Ac-DHFQQRM-NH2 [Ac-SEQ ID NO:24-NH2]
Completion: 88.95

---

Test system: SNARE complex
Test: Inhibition of SNARE complex formation (competition versus SNAP-25), complex detected by ELISA
Assay type: binding
Settings: concentration of compound 2.5 mM
Residues, ends and D or L forms follow the SMILES beside them. *: point of attachment. Palmitoyl = CCCCCCCCCCCCCCCC(=O)*; NHhexadecyl = CCCCCCCCCCCCCCCCN*
Here, each record is paired with measured % inhibition formation SNARE complex data.
Express the result in % but write the number alone.

See these solved cases before continuing.
molecule	% inhibition formation SNARE complex [%]
CCCCCCCCCCCCCCCC(=O)N[C@@H](CC(=O)O)C(=O)N[C@@H](Cc1c[nH]cn1)C(=O)N[C@@H](Cc1ccccc1)C(=O)N[C@@H](CC(C)C)C(=O)N[C@@H](CC(=O)O)C(=O)N[C@@H](Cc1c[nH]c2ccccc12)C(=O)N[C@@H](CCSC)C(N)=O [Palm-SEQ ID NO:25-NH2] (Palmitoyl-DHFLDWM-NH2)	53
CCCCCCCCCCCCCCCCNC(=O)[C@H](CCSC)NC(=O)[C@H](Cc1c[nH]c2ccccc12)NC(=O)[C@H](CCCNC(=N)N)NC(=O)[C@H](CCCCN)NC(=O)[C@H](CC(C)C)NC(=O)[C@H](CC(=O)O)NC(=O)[C@H](CCC(=O)O)NC(C)=O [Ac-SEQ ID NO:14-NH-(CH2)15-CH3] (Ac-EDLKRWM-NHhexadecyl)	35
CCCCCCCCCCCCCCCC(=O)N[C@@H](CCC(N)=O)C(=O)N[C@@H](Cc1c[nH]cn1)C(=O)N[C@@H](CC(C)C)C(=O)N[C@@H](Cc1c[nH]cn1)C(=O)N[C@@H](CC(N)=O)C(=O)N[C@H](C(=O)N[C@@H](CCSC)C(N)=O)C(C)C [Palm-SEQ ID NO:3-NH2] (Palmitoyl-QHLHNVM-NH2)	51
CCCCCCCCCCCCCCCC(=O)N[C@@H](CC(=O)O)C(=O)N[C@@H](Cc1c[nH]cn1)C(=O)N[C@@H](Cc1ccccc1)C(=O)N[C@@H](CC(C)C)C(=O)N[C@@H](CC(N)=O)C(=O)N[C@@H](Cc1c[nH]c2ccccc12)C(=O)N[C@@H](CCSC)C(N)=O [Palm-SEQ ID NO:34-NH2] (Palmitoyl-DHFLNWM-NH2)	51

Prompt: # query: % inhibition formation SNARE complex | item CCCCCCCCCCCCCCCC(=O)N[C@@H](CCC(=O)O)C(=O)N[C@@H](Cc1c[nH]cn1)C(=O)N[C@@H](CC(C)C)C(=O)N[C@@H](CCCCN)C(=O)N[C@@H](CCC(N)=O)C(=O)N[C@@H](Cc1c[nH]c2ccccc12)C(=O)N[C@@H](CCSC)C(N)=O [Palm-SEQ ID NO:1-NH2] (Palmitoyl-EHLKQWM-NH2) | system: SNARE complex
Completion: 47

Prompt: # query: % inhibition formation SNARE complex | item CCCCCCCCCCCCCCCC(=O)N[C@@H](CC(N)=O)C(=O)N[C@@H](Cc1c[nH]cn1)C(=O)N[C@@H](Cc1ccccc1)C(=O)N[C@@H](CC(C)C)C(=O)N[C@@H](CC(N)=O)C(=O)N[C@@H](Cc1c[nH]c2ccccc12)C(=O)N[C@@H](CCSC)C(N)=O [Palm-SEQ ID NO:15-NH2] (Palmitoyl-NHFLNWM-NH2) | system: SNARE complex
Completion: 21
